Values were extracted from ChEMBL document CHEMBL4699450.

- assay text: Half life in mouse liver microsomes at 1 uM in presence of NADPH-regenerating system
- Type: ADME, Microsome
Kindly supply the reported half-life at 1 µM values for the records listed here.
Numbers only, in min.

Observe how each entry below is paired with its result.
> print(dat)
                                   molecule  unit.text  val
1  FC(F)Oc1ccc(-c2nnc3cncc(OCCc4ccccc4)n23)cc1        min    7
2  FC(F)Oc1ccc(-c2nnc3cncc(OCC45CC(C(F)F)(C4)C5)n23)cc1        min   66

We now examine a further molecule.
Please report the recorded half-life at 1 µM for FC(F)Oc1ccc(-c2nnc3cncc(OCCC45C6C7C8C6C4C8C75)n23)cc1 (stereo not drawn) . 3

====

Please go through the items and note down their solubility kinetic at 0.5 h.
- assay text: Kinetic solubility in pH 6.5 phosphate buffer after 30 mins by nephelometry
- Type: physicochemical
- run conditions: read-out: Kinetic_solubility
Give bare numbers, in µg/mL.

> print(dat)
                                smiles.code             measurement.kind  val
1  FC(F)Oc1ccc(-c2nnc3cncc(OCCc4ccccc4)n23)cc1  solubility kinetic at 0.5 h  6.3

If you can, please state the reported solubility kinetic at 0.5 h value of FC(F)Oc1ccc(-c2nnc3cncc(OCC45CC(C(F)F)(C4)C5)n23)cc1 . 6.3

====

// IC50 collected for Voltage-gated inwardly rectifying potassium channel KCNH2 (Homo sapiens, UniProt Q12809)
Give bare numbers, in µM.

> print(dat)
                                   molecule   val
1  FC(F)Oc1ccc(-c2nnc3cncc(OCCC45C6C7C8C6C4C8C75)n23)cc1 (configuration not stated)  4.26

# evaluate next
Recall the recorded IC50 for FC(F)Oc1ccc(-c2nnc3cncc(OCCc4ccccc4)n23)cc1 with Voltage-gated inwardly rectifying potassium channel KCNH2 (Homo sapiens, UniProt Q12809) and state it. 7.41
